EC50, CellTiter-Blue viability values for the molecules below.
system: HCC1599; conditions: 72 h

| mol.smiles | EC50, CellTiter-Blue viability (µM) |
| --- | --- |
| CN(C)c1nc(N(C)C)nc(N(C)C)n1 | 2.95 |
| CNC(=O)c1cc(Oc2ccc(NC(=O)Nc3ccc(Cl)c(C(F)(F)F)c3)c(F)c2)ccn1 | 7.36 |
| COCC[n+]1c2c(n(Cc3cnccn3)c1C)C(=O)c1ccccc1C2=O | 0.012 |
| O=C(/C=C/c1cccc(S(=O)(=O)Nc2ccccc2)c1)NO | 0.348 |
| c1ccc2c(CCNc3ccc(Nc4ccncc4)cc3)c[nH]c2c1 | 1.61 |
